The values you see were collected from paper PMC7666158.

Target: T1, pp-p38 (activated, double-phosphorylated p38alpha) (human, UniProt Q16539 1-360, double-phosphorylated on the activation loop (pp-p38; T180/Y182 as named for the anti-pp-p38 antibody; pY182 in Fig. 5b))
T1 construct: human p38alpha (MAPK14), phosphorylated form; also called pp-p38α; source: E. coli, co-expressed with constitutively active GST-tagged MAP2Ks, purified
T1 sequence (Q16539 whole entry): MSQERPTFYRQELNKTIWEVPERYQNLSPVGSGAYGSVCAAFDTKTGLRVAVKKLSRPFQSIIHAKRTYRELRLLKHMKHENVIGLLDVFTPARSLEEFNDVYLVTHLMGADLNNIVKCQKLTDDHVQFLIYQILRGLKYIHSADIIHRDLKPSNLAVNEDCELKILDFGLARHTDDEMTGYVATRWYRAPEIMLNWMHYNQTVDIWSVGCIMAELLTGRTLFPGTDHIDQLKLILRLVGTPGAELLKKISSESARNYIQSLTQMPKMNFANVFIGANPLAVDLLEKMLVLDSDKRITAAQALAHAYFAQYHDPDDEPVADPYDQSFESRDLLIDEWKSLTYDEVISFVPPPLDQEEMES
Experiment: in vitro kinase assay fitted with a kinetic model; 5 nM pp-JNK or pp-p38, MBP-ATF2(19-100) substrate 0.5-100 uM, 5 mM ATP, kinase buffer; p-T71 and p-T69/T71 by quantitative dot-blots; binding rates (kon, koff) and reaction rates fitted simultaneously with the BioNetGen model (PyBioNetFit)
Conditions: both partners purified
recorded_endpoint: Kd

{"columns": ["binder", "value_measured"],
 "data": [
  ["MBP-ATF2(19-100)-WT (domain or fragment, human, UniProt P15336-1 19-100, looked up, A TEV site lies between MBP and ATF2; also called MBP-ATF2-His6; ATF2 TAD; source: E. coli BL21(DE3), purified (Ni-NTA, maltose resin); not shown: MBP, N-terminal, kept; His6, C-terminal, kept) MSDDKPFLCTAPGCGQRFTNEDHLAVHKHKHEMTLKFGPARNDSVIVADQTPTPTRFLKNCEEVGLFNELASPFENEFKKAS", "~25 µM"]
]}
